MBC reference
Tested on: Escherichia coli
Assay: Bactericidal activity against Escherichia coli DH10beta harboring pHuLUC3 after 18 to 20 hrs by microdilution method
Format: functional
Write the answer as a number in µg/mL, unit excluded.

O=C(c1cccnc1)N(/N=N/c1ccc([N+](=O)[O-])cc1)c1ccc([N+](=O)[O-])cc1 ... 16
O=C(CCl)N(/N=N/c1ccc([N+](=O)[O-])cc1Br)c1ccc([N+](=O)[O-])cc1Br ... 128
O=C(c1ccncc1)N(/N=N/c1ccc([N+](=O)[O-])cc1Cl)c1ccc([N+](=O)[O-])cc1Cl ... 16
O=C(c1ccccc1F)N(/N=N/c1ccc([N+](=O)[O-])cc1Br)c1ccc([N+](=O)[O-])cc1Br ... 128
O=C(c1ccncc1)N(/N=N/c1ccc([N+](=O)[O-])cc1)c1ccc([N+](=O)[O-])cc1 ... 32

// query Requested field: MBC. Item: `O=C(c1ccccc1F)N(/N=N/c1ccc([N+](=O)[O-])cc1Cl)c1ccc([N+](=O)[O-])cc1Cl`
// result 128

// query Requested field: MBC. Item: `O=C(c1cccc(F)c1)N(/N=N/c1ccc([N+](=O)[O-])cc1Cl)c1ccc([N+](=O)[O-])cc1Cl`
// result 64

// query Requested field: MBC. Item: `O=C(c1ccc(F)cc1)N(/N=N/c1ccc([N+](=O)[O-])cc1Br)c1ccc([N+](=O)[O-])cc1Br`
// result 64

// query Requested field: MBC. Item: `CC(=O)N(/N=N/c1ccc([N+](=O)[O-])cc1)c1ccc([N+](=O)[O-])cc1`
// result 128

// query Requested field: MBC. Item: `O=C(c1cccc(C(F)(F)F)c1)N(/N=N/c1ccc([N+](=O)[O-])cc1Cl)c1ccc([N+](=O)[O-])cc1Cl`
// result 64

// query Requested field: MBC. Item: `CC(=O)OCC(=O)N(/N=N/c1ccc([N+](=O)[O-])cc1Br)c1ccc([N+](=O)[O-])cc1Br`
// result 64

// query Requested field: MBC. Item: `O=C(c1ccccc1C(F)(F)F)N(/N=N/c1ccc([N+](=O)[O-])cc1C(F)(F)F)c1ccc([N+](=O)[O-])cc1C(F)(F)F`
// result 128

// query Requested field: MBC. Item: `O=C(c1cccnc1)N(/N=N/c1ccc([N+](=O)[O-])cc1Cl)c1ccc([N+](=O)[O-])cc1Cl`
// result 32
